# System: CP194
# assay_remarks: qHTS profiling for inhibitors of Plasmodium falciparum proliferation (AID 504749); also: nearly all actives have a fitted effect of over 60% in size
# conditions_used: P. falciparum in erythrocytes, SYBR Green DNA, 72 h; series mostly up to 28.7 µM
Records with an inconclusive call do not appear. Calls of active or inactive are those of the source. Calls follow the shape of the dose curve; as a rule, active = well fitted inhibition curve with a large enough effect; inconclusive = small, poorly fitted or top-dose-only effect; inactive = flat fitted curve, though single readings scatter.
Outcome field: choose from TRUE = active, FALSE = inactive

Q) Hey, what did the test say about CCCCC(=O)N(Cc1ccc(-c2ccccc2-c2nn[nH]n2)cc1)C(C(=O)O)C(C)C (configuration not stated) ?
A) FALSE

Q) Hey, what did the test say about CC(C)C[C@@H](NC(=O)[C@H](Cc1ccccc1)NC(=O)c1cnccn1)B(O)O ?
A) TRUE

Q) Hey, what did the test say about O=C(CC1NCCC[C@H]1O)Cn1cnc2cc(Br)c(Cl)cc2c1=O (some centres not stated) ?
A) TRUE
